# System: SK-OV-3 ovarian
# measurement.notes: NCI tumour cell line growth inhibition, 48 h
measure.name: TGI

- compound: "Cc1ccccc1NC(=O)C(=O)Cc1nc2ccccc2s1"
  result: "> 100 µM"
- compound: "CC(=O)Nc1ccc(/C=c2\\sc3nnc(/C=C/c4ccccc4)n3c2=O)cc1"
  result: "> 50 µM"
- compound: "Cc1ccc2c(c1)NC(=O)C(N=[N+]=[N-])(c1ccccc1)C2=O (centres undefined)"
  result: "84.3 µM"
- compound: "O=C1OC(=O)C2C3CCC(O3)C12 (centres undefined)"
  result: "> 100 µM"
- compound: "C=C1C(=O)C=C2C=C3C(=O)C(C)(C)C[C@]3(O)C12C (some centres undefined)"
  result: "38.1 µM"
- compound: "CSC(=S)NN=C1CCCCC1"
  result: "> 100 µM"
- compound: "COc1cc(CNC(=O)CCCCCCCC/C=C/Br)ccc1O"
  result: "> 10 µM"
- compound: "O=S(=O)(Nc1ccccc1S(=O)(=O)c1ccccc1)c1ccccc1"
  result: "> 100 µM"
- compound: "C=CC1=C(C)C2=NC1=CC1=NC(=C(CC)/C1=C/O)C=C1C=C3C(=O)C(C(=O)OC)C(=C4NC(=C2)C(C)C4CCC(=O)OC/C=C(\\C)CCCC(C)CCCC(C)CCCC(C)C)C3=N1 (centres undefined) (tested in a mixture with another compound)"
  result: "> 100 µM"
- compound: "COC(=O)C1CCc2c(OC)ccc(OC)c2C1=O (centres undefined)"
  result: "> 100 µM"
- compound: "O=[N+]([O-])c1cc(Cl)ccc1S(=O)(=O)c1ccccc1"
  result: "> 100 µM"
- compound: "Cc1[nH]n(-c2ccccc2)c(=S)c1C(=O)c1ccccc1"
  result: "> 100 µM"
- compound: "C[C@]12CC[C@@H]3c4ccc(O)cc4CC[C@H]3[C@@H]1CC[C@@H]2NS(=O)(=O)c1cccc(Br)c1"
  result: "18.6 µM"
- compound: "COC(CNC(=O)C(C)NC(=O)C(C)NC(=O)c1ccccc1)OC (centres undefined)"
  result: "> 100 µM"
- compound: "CNC(=O)OCc1nc(S(C)=O)n(C)c1COC(=O)NC (centres undefined)"
  result: "> 73.3 µM"
- compound: "c1ccc2cc3n[se]nc3cc2c1"
  result: "> 100 µM"
- compound: "Cc1cc(N2CCN(C)CC2)nc(NC2CCCC(Nc3ccnc4cc(Cl)ccc34)C2)n1 (centres undefined)"
  result: "11.5 µM"
- compound: "CCOC(=O)Cn1nc2ccc(Nc3nc4ccccc4nc3C(=O)OCC)cc2n1"
  result: "> 100 µM"
- compound: "COCCOC(C)C(/C=N/NC(N)=S)=N/NC(N)=S (centres undefined)"
  result: "> 100 µM"
- compound: "Fc1cccc(F)c1C1SCc2nc3ccccc3n21 (centres undefined)"
  result: "> 100 µM"
- compound: "N#Cc1c(NC(=O)CCC(=O)O)ccc2ccccc12"
  result: "> 100 µM"
- compound: "CC(C)NC(C)Cc1ccccc1 (centres undefined)"
  result: "> 100 µM"
- compound: "COC(=O)[C@]1(c2cc3ccccc3[nH]2)CC2CN(CC(=O)N(C)OC)C1C1OC(C)(C)OC21 (some centres undefined)"
  result: "> 100 µM"
- compound: "CS(=O)(=O)C(=Cc1ccccc1Cl)S(C)(=O)=O"
  result: "> 100 µM"

* * *

# Tested on: HCT-15 colon
# measurement.notes: NCI tumour cell line growth inhibition, 48 h
measure.name: TGI (µM)

- molecule: "Cc1ccc(NC(=O)SCCC(=O)O)cc1NC(=O)SCCC(=O)O"
  readout.qualifier: ">"
  readout.number: 100
- molecule: "Cc1cc(N2CCN(C)CC2)nc(NC2CCCC(Nc3ccnc4cc(Cl)ccc34)C2)n1 (configuration not stated)"
  readout.qualifier: "="
  readout.number: 3.1
- molecule: "COC(CNC(=O)C(C)NC(=O)C(C)NC(=O)c1ccccc1)OC (configuration not stated)"
  readout.qualifier: ">"
  readout.number: 100
- molecule: "Cc1oc2c(c1C(=O)c1ccccc1)C(=O)c1ccccc1C2=O"
  readout.qualifier: "="
  readout.number: 18.7
- molecule: "O=C1C=C(Br)C(=O)C(Br)=C1"
  readout.qualifier: ">"
  readout.number: 100
- molecule: "Cc1ccc2c(c1)NC(=O)C(N=[N+]=[N-])(c1ccccc1)C2=O (configuration not stated)"
  readout.qualifier: "="
  readout.number: 52.2
- molecule: "COC1OC(C)C(OC(=O)C(C)(C)C)C(C)(O)C1O (configuration not stated)"
  readout.qualifier: ">"
  readout.number: 100
- molecule: "COc1cc(Cn2c3c(c4cc(O)ccc42)C(=O)c2ccccc2C3=O)cc(OC)c1"
  readout.qualifier: ">"
  readout.number: 100
- molecule: "Clc1ccc2c(NCCCN3CCN(c4nc(-n5ccnc5)nc5ccccc45)CC3)ccnc2c1"
  readout.qualifier: "="
  readout.number: 3.8
- molecule: "CN1c2ccccc2C2c3c(O)ccc(O)c3C=C([N+](=O)[O-])C21 (configuration not stated)"
  readout.qualifier: "="
  readout.number: 6.41
- molecule: "C=CCSc1n[nH]c(-c2cccs2)n1"
  readout.qualifier: ">"
  readout.number: 100
- molecule: "N/C(=N\\C(=S)N1CCCCC1)N1CCCCC1"
  readout.qualifier: ">"
  readout.number: 100
- molecule: "CC(=O)N1c2ccccc2C23CCN4CC5=CCOC(O)C(C5CC42)C13 (configuration not stated)"
  readout.qualifier: ">"
  readout.number: 100
- molecule: "O=[N+]([O-])c1ccc(N(CCO)CCO)c2c1no[n+]2[O-]"
  readout.qualifier: "="
  readout.number: 7.06
- molecule: "C/C=C/C=C/[C@H]1Cc2cc(O)cc(O)c2O1"
  readout.qualifier: ">"
  readout.number: 100
- molecule: "CS(=O)(=O)c1ccc(C(F)(F)F)cc1NC(=O)Nc1cnc(Oc2ccc(-c3cc(Cl)cnc3N)cc2)nc1"
  readout.qualifier: "="
  readout.number: 13.4
- molecule: "C#C[C@]1(O)CC[C@H]2[C@@H]3CC=C4c5nc(Nc6ccc(OC)cc6OC)sc5CC[C@]4(C)[C@H]3CC[C@@]21C"
  readout.qualifier: "="
  readout.number: 4.2
- molecule: "N#CC1=C(N)Oc2c(sc3c(F)cccc23)C1c1ccc([N+](=O)[O-])cc1 (configuration not stated)"
  readout.qualifier: "="
  readout.number: 1.41
- molecule: "CCCCCN(CCCCC)C(=O)[C@@H](CCC(=O)OCc1ccccc1)NC(=O)c1cc2ccccc2[nH]1"
  readout.qualifier: ">"
  readout.number: 100
- molecule: "CSc1s[s+]c(SC)c1[O-]"
  readout.qualifier: ">"
  readout.number: 100
- molecule: "NC(=O)c1c(OCc2c(F)cc(Br)cc2F)nsc1NC(=O)NCCCCN1CCCC1"
  readout.qualifier: ">"
  readout.number: 10
- molecule: "O=C(c1cccs1)c1c(C(F)(F)F)n([O-])c2cc(F)c(F)cc2[n+]1=O"
  readout.qualifier: "="
  readout.number: 2.25

* * *

# Tested on: M19-MEL melanoma
# measurement.notes: NCI tumour cell line growth inhibition, 48 h
measure.name: TGI

- compound: "Cc1cccc(NC(=O)CC2C(=O)Nc3ccccc3S2(=O)=O)c1C (stereo not given)"
  measure.name: "TGI"
  result: "> 100 µM"
- compound: "CC(=O)O[C@H]1CCC2[C@@H]3CCC4C(=O)c5oncc5C[C@]4(C)C3CC[C@@]21C (stereo not given in full)"
  measure.name: "TGI"
  result: "> 100 µM"
- compound: "O=C(O)/C(O)=C1/C=C(c2ccccc2)c2ccccc21"
  measure.name: "TGI"
  result: "60.1 µM"
- compound: "C=C1CC2(OC1=O)c1ccccc1CCc1ccccc12"
  measure.name: "TGI"
  result: "3.36 µM"
- compound: "COC(=O)C(C(=O)C(=O)Nc1ccccc1OC)c1csc(-n2nc(-c3ccccc3)cc2-c2ccccc2)n1 (stereo not given)"
  measure.name: "TGI"
  result: "> 100 µM"
- compound: "CC1CC2C3CC(F)C4=CC(=O)C=CC4(C)C3(F)C(O)CC2(C)C1(O)C(=O)CO (stereo not given)"
  measure.name: "TGI"
  result: "> 100 µM"
- compound: "CCC12C=CCN3CC[C@]4(C(=C(C(=O)OC)[C@@H]1Nc1ccn(C5OC(COC(C)=O)C(OC(C)=O)C5OC(C)=O)c(=O)n1)Nc1ccccc14)C32 (stereo not given in full)"
  measure.name: "TGI"
  result: "7.45 µM"
- compound: "CC1=CCC2(C#N)CCC1C2=O (stereo not given)"
  measure.name: "TGI"
  result: "> 100 µM"
- compound: "CN/N=C(\\C)CC(=O)Nc1cccc(Cl)c1C"
  measure.name: "TGI"
  result: "> 100 µM"
- compound: "O=C(O)C1Cc2nc[nH]c2CN1 (stereo not given)"
  measure.name: "TGI"
  result: "> 100 µM"

meta.source: PubChem BioAssay (NCI)
